- ASSAY PROCEDURE: self-splicing fitness, log relative to wild type (ln ratio); higher = more splicing; Tetrahymena group I intron in knt gene, E. coli kanamycin selection, DiMSum; sequences stand for … in CUCUCU…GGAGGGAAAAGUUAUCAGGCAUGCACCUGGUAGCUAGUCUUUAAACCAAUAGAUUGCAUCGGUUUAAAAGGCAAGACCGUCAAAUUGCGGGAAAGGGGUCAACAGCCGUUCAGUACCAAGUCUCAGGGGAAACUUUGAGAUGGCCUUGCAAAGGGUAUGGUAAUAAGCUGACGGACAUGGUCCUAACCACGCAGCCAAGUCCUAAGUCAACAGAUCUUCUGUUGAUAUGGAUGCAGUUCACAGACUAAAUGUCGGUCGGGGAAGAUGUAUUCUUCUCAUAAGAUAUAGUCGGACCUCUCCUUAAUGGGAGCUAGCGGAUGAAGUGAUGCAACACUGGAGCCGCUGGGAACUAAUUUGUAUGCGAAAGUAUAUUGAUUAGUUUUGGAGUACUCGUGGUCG;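 also: selection with 25 µg/mL kanamycin versus none on LB agar overnight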
- CONDITION DESCRIPTION: 37 °C
PARAMETER: self-splicing fitness (ln)
Answers are plain numbers.

Go through the list and state self-splicing fitness (ln) for each entry.
1. GCAUAGCAAUAUUACGUAGG
2. UGUCAGCAAUAUUACGCGAA
3. UACAAGCAAUAUUACGACCA
4. ACCGAGCAAUAUUACGACCG
5. ACAUAGCAAUAUUACGUGCC

Result:
-1.31
0.0551
-0.203
-1.52
-0.986

* * *

- ASSAY PROCEDURE: self-splicing fitness, log relative to wild type (ln ratio); higher = more splicing; Tetrahymena group I intron in knt gene, E. coli kanamycin selection, DiMSum; sequences stand for … in CUCUCU…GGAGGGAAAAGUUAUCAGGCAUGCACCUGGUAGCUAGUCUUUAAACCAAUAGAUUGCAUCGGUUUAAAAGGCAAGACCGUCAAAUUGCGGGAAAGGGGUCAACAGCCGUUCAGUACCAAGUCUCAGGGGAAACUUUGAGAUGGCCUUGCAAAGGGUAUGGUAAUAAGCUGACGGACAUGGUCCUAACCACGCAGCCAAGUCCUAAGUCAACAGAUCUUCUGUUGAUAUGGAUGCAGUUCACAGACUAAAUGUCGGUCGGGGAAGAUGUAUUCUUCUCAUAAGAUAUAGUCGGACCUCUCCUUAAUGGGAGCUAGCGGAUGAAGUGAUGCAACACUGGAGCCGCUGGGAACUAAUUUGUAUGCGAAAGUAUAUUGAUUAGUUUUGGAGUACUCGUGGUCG
- CONDITION DESCRIPTION: 30 °C
PARAMETER: self-splicing fitness (ln)
One number for each entry.

Answered cases to consult:
{"PRIMARY SEQUENCE": "CGUGAGCAAUAUUACGGCGU", "ASSAY RESULT": -2.44}
{"PRIMARY SEQUENCE": "GCGCAGCAAUAUUACGUGGA", "ASSAY RESULT": -1.48}
{"PRIMARY SEQUENCE": "UAAGAGCAAUAUUACGUCGU", "ASSAY RESULT": -4.06}
{"PRIMARY SEQUENCE": "CCUGAGCAAUAUUACGAUAG", "ASSAY RESULT": -1.55}
{"PRIMARY SEQUENCE": "GUCAAGCAAUAUUACGACCG", "ASSAY RESULT": -3.14}

Go through the list and state self-splicing fitness (ln) for each entry.
1. CUAAAGCAAUAUUACGUAUG
2. AACCAGCAAUAUUACGUCAG
3. CAAUAGCAAUAUUACGAGUC
4. CAAUAGCAAUAUUACGCCCG
5. UUUAAGCAAUAUUACGUCGG
6. UUCCAGCAAUAUUACGCCGG

Result:
1: -0.125; 2: -2.3; 3: -4.09; 4: -0.472; 5: -0.492; 6: -3.4

Go through the list and state self-splicing fitness (ln) for each entry.
1. UCCCAGCAAUAUUACGCGUU
2. GUCAAGCAAUAUUACGAUAA

Result:
1: -1.11; 2: -1.8

Go through the list and state self-splicing fitness (ln) for each entry.
1. CCGAAGCAAUAUUACGGACU
2. UGCCAGCAAUAUUACGGGAC
3. GACAAGCAAUAUUACGUCUU
4. UAUUAGCAAUAUUACGUCCA
5. CUUGAGCAAUAUUACGUGGU

Result:
1: -2.33; 2: -3.51; 3: -2.08; 4: -0.691; 5: -2.61

Go through the list and state self-splicing fitness (ln) for each entry.
1. GCAUAGCAAUAUUACGAUUU
2. GUGAAGCAAUAUUACGUGCU
3. ACCCAGCAAUAUUACGUAAC
4. AGCAAGCAAUAUUACGCGCC
5. UCAAAGCAAUAUUACGCGUC
6. AAGGAGCAAUAUUACGUCUG

Result:
[-1.27, -1.99, -1.49, -3.19, -3.15, -1.18]

Go through the list and state self-splicing fitness (ln) for each entry.
1. ACAAAGCAAUAUUACGGUCU
2. AAUCAGCAAUAUUACGCUAC
3. CCCUAGCAAUAUUACGAAUA
4. GGGUAGCAAUAUUACGGAAU
5. GGUCAGCAAUAUUACGGAAC
6. UACCAGCAAUAUUACGUAGU

Result:
-0.435
-2.83
-1.47
-0.368
-1.04
-2.96

Go through the list and state self-splicing fitness (ln) for each entry.
1. GAUUAGCAAUAUUACGAUGG
2. AUGCAGCAAUAUUACGGUAC
3. AAAAAGCAAUAUUACGUAUC
4. UUGCAGCAAUAUUACGGGAA

Result:
-3.28
-2.35
-2.37
-1.51
